Target: recombinant human IL-31 (C108S), produced in E. coli by ZymoGenetics, MW 18 kDa (human), Q6EBC2
Test: cell-based or functional assay
measured.quantity: Average Potency (IC50), inhibition of hIL-31-induced proliferation of BAF-3(hIL-31R) cells (nM)

{"binder": "humanized 292.12.3.1 construct clone 26 (12VH1-gly + HC(fback) + LC(F71Y)) (antibody, human IgG4, V domains shown) VH: QVQLVQSGAEVKKPGASVKVSCKASGYTLTRYWMQWVRQAPGQGLEWMGAIYPGDGDTRYSQKFQGRVTLTADKSISTAYMELSSLRSEDTAVYYCAFPDGYYAAPYGMDYWGQGTLVTVSS VL: DIQMTQSPSSLSASVGDRVTITCRASGNIHNYLAWYQQKPGKVPKLLIYNAKTLADGVPSRFSGSGSGTDYTLTISSLQPEDVATYYCQHFWSTPWTFGQGTKVEIKR", "reading.unit": "nM", "number": 9.3}
{"binder": "humanized 292.12.3.1 construct clone 18 (12VH1-gly + HC(fback) + LC(G66R, G68E, F71Y)) (antibody, human IgG4, V domains shown) VH: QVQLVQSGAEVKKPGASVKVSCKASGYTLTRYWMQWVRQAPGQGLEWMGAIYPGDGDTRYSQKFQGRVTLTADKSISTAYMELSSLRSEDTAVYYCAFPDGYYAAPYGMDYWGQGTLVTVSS VL: DIQMTQSPSSLSASVGDRVTITCRASGNIHNYLAWYQQKPGKVPKLLIYNAKTLADGVPSRFSGSRSETDYTLTISSLQPEDVATYYCQHFWSTPWTFGQGTKVEIKR", "reading.unit": "nM", "number": 8.1}
{"binder": "humanized 292.12.3.1 construct clone 8 (12VH5-gly + fback) (antibody, human IgG4, V domains shown, also called 08) VH: EVQLVQSGAEVKKPGESLKISCKASGYTLTRYWMQWVRQMPGKGLEWMGAIYPGDGDTRYSPSFQGQVTLTADKSISTAYLQWSSLKASDTAMYYCAFPDGYYAAPYGMDYWGQGTTVTVSS VL: DIQMTQSPSSLSASVGDRVTITCRASGNIHNYLAWYQQKPGKVPKLLIYNAKTLADGVPSRFSGSRSETQYSLTISSLQPEDVATYYCQHFWSTPWTFGQGTKVEIKR", "reading.unit": "nM", "number": 4.1}
{"binder": "humanized 292.12.3.1 construct clone 31 (12VH1-gly + HC(F29L, M69L, R71A, V78A, R94F) + LC(F71Y)) (antibody, human IgG4, V domains shown) VH: QVQLVQSGAEVKKPGASVKVSCKASGYTLTRYWMQWVRQAPGQGLEWMGAIYPGDGDTRYSQKFQGRVTLTADTSISTAYMELSSLRSEDTAVYYCAFPDGYYAAPYGMDYWGQGTLVTVSS VL: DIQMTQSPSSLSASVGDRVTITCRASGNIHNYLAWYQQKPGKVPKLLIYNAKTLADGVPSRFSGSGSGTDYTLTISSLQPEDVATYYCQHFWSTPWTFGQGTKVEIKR", "reading.unit": "nM", "number": 32.4}
{"binder": "humanized 292.12.3.1 construct clone 27 (12VH1-gly + HC(F29L, M69L, R94F) + LC(F71Y)) (antibody, human IgG4, V domains shown) VH: QVQLVQSGAEVKKPGASVKVSCKASGYTLTRYWMQWVRQAPGQGLEWMGAIYPGDGDTRYSQKFQGRVTLTRDTSISTVYMELSSLRSEDTAVYYCAFPDGYYAAPYGMDYWGQGTLVTVSS VL: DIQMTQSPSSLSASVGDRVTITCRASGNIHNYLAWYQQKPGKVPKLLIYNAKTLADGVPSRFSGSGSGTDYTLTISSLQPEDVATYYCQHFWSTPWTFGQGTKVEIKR", "reading.unit": "nM", "number": 29.1}
